PLATELET COUNT overview
- Species: Rattus norvegicus
- procedureDetails: DrugMatrix - Regimen: Daily Repeat
- Format: toxicity, organism-based, Sprague-Dawley
- Set-up: regimen Daily Repeat, gender Male, age 6-8 weeks
- experimentalContext: in vivo, po, 1500 mg/kg, 72 h, tissue Blood, route oral GAVAGE, dose level High, time 3 day, vehicle .5 % CMC
Reply numerically in x10E3/uL, unit not repeated.

molecule="O=c1cnn([C@@H]2O[C@H](CO)[C@@H](O)[C@H]2O)c(=O)[nH]1 [6-AZAURIDINE]" observedvalue=1317.67
molecule="CC(C)=CCC/C(C)=C/CO [GERANIOL]" observedvalue=1276
molecule="CN(C)[C@@H]1C(O)=C(C(N)=O)C(=O)[C@@]2(O)C(O)=C3C(=O)c4c(O)ccc(Cl)c4[C@@](C)(O)[C@H]3C[C@@H]12 [CHLORTETRACYCLINE]" observedvalue=1359

Task item: # lookup: PLATELET COUNT of COC(=O)Nc1nc2ccc([S+]([O-])c3ccccc3)cc2[nH]1 (stereo not given) [OXFENDAZOLE]
Reply: 1138.67

Task item: Likewise for CC(C)Oc1ccc2c(=O)c(-c3ccccc3)coc2c1 [IPRIFLAVONE] ?
Reply: 1247.33

----------
- Species: Rattus norvegicus
- procedureDetails: DrugMatrix - Regimen: Daily Repeat
- Format: toxicity, organism-based, Sprague-Dawley
- Parameters: regimen Daily Repeat, gender Male, age 6-8 weeks
- experimentalContext: in vivo, po, 0 mg/kg, 120 h, tissue Blood, route oral GAVAGE, dose level Control, time 5 day, […]
ABSOLUTE EOSINOPHIL overview
Reply numerically in CELLS/uL, unit not repeated.

molecule="COc1cc([C@@H]2c3cc4c(cc3[C@@H](O[C@@H]3O[C@@H]5CO[C@@H](C)O[C@H]5[C@H](O)[C@H]3O)[C@H]3COC(=O)[C@H]23)OCO4)cc(OC)c1O [ETOPOSIDE]" measurementtype="ABSOLUTE EOSINOPHIL" observedvalue=0

Consider now this further molecule.
Task item: # lookup: ABSOLUTE EOSINOPHIL of CO[C@H]1/C=C/O[C@@]2(C)Oc3c(C)c(O)c4c(O)c(c(/C=N/N5CCN(C6CCCC6)CC5)c(O)c4c3C2=O)NC(=O)/C(C)=C\C=C\[C@H](C)[C@H](O)[C@@H](C)[C@@H](O)[C@@H](C)[C@H](OC(C)=O)[C@@H]1C
Reply: 87

----------
- Organism: Rattus norvegicus
- procedureDetails: DrugMatrix - Regimen: Daily Repeat
- Format: toxicity, organism-based, Sprague-Dawley
- Design: regimen Daily Repeat, gender Male, age 6-8 weeks
- experimentalContext: in vivo, po, 1500 mg/kg, 72 h, tissue Blood, route oral GAVAGE, dose level High, time 3 day, vehicle .5 % CMC
measurementType: NUCLEATED RED BLOOD CELLS

Sample records with NUCLEATED RED BLOOD CELLS:
compound="COC(=O)Nc1nc2ccc([S+]([O-])c3ccccc3)cc2[nH]1 (stereo not given)" measurementtype="NUCLEATED RED BLOOD CELLS" observedvalue="0 /100WBC"
compound=O=c1cnn([C@@H]2O[C@H](CO)[C@@H](O)[C@H]2O)c(=O)[nH]1 measurementtype="NUCLEATED RED BLOOD CELLS" observedvalue="0 /100WBC"
compound=CN(C)[C@@H]1C(O)=C(C(N)=O)C(=O)[C@@]2(O)C(O)=C3C(=O)c4c(O)ccc(Cl)c4[C@@](C)(O)[C@H]3C[C@@H]12 measurementtype="NUCLEATED RED BLOOD CELLS" observedvalue="0 /100WBC"
compound=CC(C)Oc1ccc2c(=O)c(-c3ccccc3)coc2c1 measurementtype="NUCLEATED RED BLOOD CELLS" observedvalue="0.33 /100WBC"

Task item: # lookup: NUCLEATED RED BLOOD CELLS of CC(C)=CCC/C(C)=C/CO
Reply: 0.33 /100WBC
